Tested on: PC-3 prostate
Assay: NCI-60 one-dose screen, 48 h (100 = growth as untreated, 0 = no growth, -100 = all killed)
Conditions: 10 µM unless noted
Compounds without any hit were thinned out: in the full panel of roughly 83,000, 20% have a hit.
Would you mind classing the entries by growth? Ranges: class 0 (below 40%), class 1 (40% to below 70%), class 2 (70% or more)

1. COc1ccc(C(O)c2cc3c(N)c(C(=O)Nc4cccc5ccccc45)sc3nc2C)cc1 (centres undefined); class 0

Req: Which bin, given its growth, does CSc1ccc(N2C(=N)C(=S)N(c3ccc(C)cc3)C2=O)cc1 occupy?
Resp: class 2

Req: Which bin, given its growth, does CC1(/C=C/c2ccc(-c3ccccc3)cc2)CCn2cnc3ncnc(c32)N1O (centres undefined) occupy?
Resp: class 1

Req: Which bin, given its growth, does COc1ccc(/C=C2\c3cc(OC)c(OC)c(OC)c3CC[C@@H]2O)cc1F occupy?
Resp: class 0

Req: Which bin, given its growth, does Fc1cccc(CNc2c3ccccc3nc3ccccc23)c1 occupy?
Resp: class 1

Req: Which bin, given its growth, does O=C(O)CCCCCCCCCCN1C(=O)/C(=C2/C(=O)N(CC(=O)O)c3ccc(Br)cc32)SC1=S occupy?
Resp: class 2

----------
Provide the recorded growth for the entries that follow.
Test system: SF-295 CNS
Assay: NCI-60 one-dose screen, 48 h (100 = growth as untreated, 0 = no growth, -100 = all killed)
Conditions: 10 µM unless noted
Description: Cells are grown in 96 well plates and exposed to the test compound for 48 hours. Compounds are tested at a single concentration, which is 10^-5 M for most compounds. The reported endpoint is percent growth (GI% or GIPRCNT), where numbers from 0 - 100% represent growth inhibition, and numbers from -100% - 0 represent cell death. For example, a value of 40 represents 60% growth inhibition. A value of 0 means no net growth occurred over the course of the experiment. […]
This is part of a sample that, as a whole, favours compounds with a hit. Of some 83,000 tested, about 20% had one in any assay.
One number for each entry, in %.

1. COCCn1cc(-c2nc(-c3c[nH]c4ncccc34)cs2)c2ccccc21; 68.8
2. N#Cc1c(-c2ccccc2)nc2c(c(-c3ccc(Cl)cc3)nn2-c2ccccc2)c1-c1ccc([N+](=O)[O-])cc1; 98.7

Would you mind listing growth for each of the following compounds?
1. COc1ccc(C2CC(c3ccccc3)=NN2C(=O)c2cc(OC)c(OC)c(OC)c2)cc1O (centres undefined)
2. COc1ccc(/C=C(\C(=O)NCc2cccnc2)S(=O)(=O)c2ccccc2)cc1OC
3. CC1=C2CC/C(C)=C/CC[C@]3(C)O[C@H]3CC/C(C)=C/[C@H]2OC1

Resp:
5.83
57.8
91

Would you mind listing growth for each of the following compounds?
1. O=C1OCC2=C1C(c1ccccc1)c1cc3c(cc1N2CCO)OCCO3 (centres undefined)
2. CC(=O)c1c(Nc2cccc(F)c2)[nH]c2c(Cl)cc(Cl)c(Cl)c2c1=O
3. C/C(Cc1ccc(Cl)cc1)=C(\c1ccc(OCCN2CCCCCC2)cc1)c1ccc(OC(=O)c2ccccc2)cc1
4. Fc1ccc2[nH]cc(-c3nc(-c4c[nH]c5c(Cl)nccc45)cs3)c2c1

Resp:
1. 0.89
2. -28.4
3. 56
4. 18.1

----------
System: OVCAR-3 ovarian
Test: NCI-60 one-dose screen, 48 h
Conditions: 10 µM unless noted
Protocol: Growth inhibition of the OVCAR-3 human tumor cell line is measured as a screen for anti-cancer activity. Cells are grown in 96 well plates and exposed to the test compound for 48 hours. Compounds are tested at a single concentration, which is 10^-5 M for most compounds. The reported endpoint is percent growth (GI% or GIPRCNT), where numbers from 0 - 100% represent growth inhibition, and numbers from -100% - 0 represent cell death. For example, a value of 40 represents 60% growth inhibition. […]
About 83,000 compounds went through this panel and 20% of them were active in at least one assay; those are over-represented in the sample as a whole. Calls of active or inactive are those of the source. The calls were made as follows: active = growth percent below 10; inactive = the rest.
Respond using exactly one of the listed classes: t for active, f for inactive

1. O=C1/C(=C/c2cccc(Br)c2)COc2ccc(O)cc21; f
2. CN(C)CCCC1(c2ccc(F)cc2)OCc2cc(-c3csc4ccccc34)ccc21 (stereo not given); t
3. CC1(C)CC[C@]23CC[C@]4(C)[C@H](CC[C@@H]5[C@@]6(C)C/C(=C/O)C(=O)C(C)(C)[C@@H]6CC[C@]54C)[C@H]2[C@H]1OC3; f
4. Cc1[nH]n(-c2cccc(Cl)c2)c(=O)c1/C=C1\C=c2ccccc2=CC1=O; f

Req: Query: recorded result category for C=C(C)[C@@H]1CC[C@]2(C(=O)N3CCNCC3)CC[C@]3(C)[C@H](CC[C@@H]4[C@@](C)(CCC(=O)N5CCNCC5)[C@H](C(=C)C)CC[C@]43C)[C@@H]12 in this test
Resp: f
